Tested on: CCRIS mutagenicity, Ames/micronucleus/aberration tests
method-summary: CCRIS mutagenicity studies
condition-description: Test System: AMES SALMONELLA TYPHIMURIUM; Strain/Indicator: TA100; Metabolic Activation: HAMSTER, LIVER, S-9, AROCLOR 1254; Method: STANDARD PLATE
Activity calls are given as the source filed them. No rule for the calls is given here.
Classes used: YES (active), NO (inactive)

line_notation=O=C(C(=O)c1ccccc1)c1ccccc1 class_assignment=NO
line_notation=CC[C@H](C)[C@@H]([C@@H](CC(=O)N1CCC[C@H]1[C@H](OC)[C@@H](C)C(=O)N[C@@H](Cc1ccccc1)c1nccs1)OC)N(C)C(=O)[C@@H](NC(=O)[C@H](C(C)C)N(C)C)C(C)C class_assignment=NO
line_notation=CC(=O)Nc1ccc(O)cc1 class_assignment=NO
line_notation=COc1cc([C@@H]2c3cc4c(cc3[C@H](O)[C@H]3COC(=O)[C@H]23)OCO4)cc(OC)c1OC class_assignment=NO
line_notation=N#CCCN class_assignment=NO
line_notation=CC(=O)O[C@@H]1[C@@H](O)[C@H](O[C@H]2[C@H](OC(=O)[C@H]3CC[C@@H]4[C@H](C3)O[C@@]3(C[C@H](OC(=O)/C=C/c5ccccc5)[C@H](C)CO3)[C@]43CO3)O[C@H](C)[C@@H](O)[C@@H]2OC(C)=O)O[C@H](C)[C@H]1O class_assignment=NO
line_notation=CC(C)CON=O class_assignment=YES
line_notation=c1ccc2cnncc2c1 class_assignment=NO
line_notation=[O]=[Zr] class_assignment=NO
line_notation=CC/C(C)=N\O class_assignment=NO
line_notation=CC(=O)/C=C/c1ccccc1 class_assignment=YES
line_notation=CCN(CC[N+](C)(C)C)c1ccc(N=Nc2ccc([N+](=O)[O-])cc2Cl)cc1 class_assignment=YES
line_notation=CCc1ccco1 class_assignment=NO
line_notation=Nc1nc(Cl)cc(Cl)n1 class_assignment=NO
line_notation=O=c1[nH]cnc2[nH]ncc12 class_assignment=NO
line_notation=Nc1ccc(S(=O)(=O)Nc2nccs2)cc1 class_assignment=NO
line_notation=Cl/C=C/C[N+]12CN3CN(CN(C3)C1)C2 class_assignment=NO
line_notation=Cc1nc2ccccc2s1 class_assignment=NO
line_notation=C1CC[C@H]2O[C@H]2C1 class_assignment=YES
line_notation=N#CCCNCCC#N class_assignment=NO
line_notation=N=C1C=CC(=C(c2ccc(N)cc2)c2ccc(N)cc2)C=C1 class_assignment=YES
line_notation=O=C([O-])c1ccccn1.O=C([O-])c1ccccn1.O=C([O-])c1ccccn1.[Cr+3] class_assignment=NO
line_notation=C=C1CC[C@H]2C[C@@H]1C2(C)C class_assignment=NO
line_notation=COc1ccc2nc(N)sc2c1 class_assignment=YES
line_notation=Nc1ccc(S(=O)(=O)Nc2cnc3c(Cl)cccc3n2)cc1 class_assignment=NO
